assay: qHTS assay to identify small molecule agonists of the NFkB signaling pathway (AID 1159509); conditions: NFkB-bla ME-180 cells, beta-lactamase FRET ratio, 5 h; series mostly up to 61 µM
Inconclusive results are not listed. Activity calls are given as the source filed them. The call rests on the fitted dose curve; in most records, active means well fitted curve in the direction sought with a large enough effect in the signal ratio in the repeat runs (not every such curve was filed as active); inconclusive means weak or mixed curves, or a change in a side signal; inactive means no such curve, though single readings can be large or run the other way; the % refers to the signal ratio.
observed-property: activation

Worked cases, answers included:
compound	activation
N#CCCCC(C#N)CCC#N (stereo unspecified)	inactive
CS(C)=O	inactive
CCCCCCCCCCCCCCCCN	inactive
CC(C)(C)c1cc(C=O)cc(C(C)(C)C)c1O	inactive
CCCc1ccc(OC)cc1	inactive

State the recorded activation for this entry: `CCCc1nc(C)c2c(=O)[nH]c(-c3cc(S(=O)(=O)N4CCN(CC)CC4)ccc3OCC)nn12`
inactive

Note, next up: `CCCC(=O)OCc1ccccc1`
inactive

---

assay: qHTS assay for identifying genotoxic compounds that show differential cytotoxicity against isogenic chicken DT40 cell lines with known DNA damage response pathways - Rev3 mutant cell line (AID 743014); details: chicken DT40 Rev3-/- viability, CellTiter-Glo, 40 h; series mostly up to 68.4 µM; further: nearly all actives have a fitted effect of over 55% in size
Inconclusive results are not listed. Activity calls are given as the source filed them. Calls follow the shape of the dose curve; as a rule, active = well fitted cell-killing curve with a large enough effect in the repeat runs; inconclusive = weak or mixed curves, or effect the other way; inactive = no such curve, though single readings can be large or run the other way.
Allowed answers: yes = active, no = inactive

Please state the recorded outcome for this compound: `CC1(C)CC(=O)CC(C)(C)N1`
no

Note, next up: CCC1=C(C)CN(C(=O)NCCc2ccc(S(=O)(=O)NC(=O)NC3CCC(C)CC3)cc2)C1=O (stereo unspecified)
no

Note, next up: `CCCCCCOC(=O)c1ccccc1`
yes

Note, next up: `S=c1[nH][nH]c(=S)s1`
no

Note, next up: `C=CCCC`
no

Note, next up: `COC(=O)C(C)(C)C`
no

Note, next up: `C1=COCCC1`
no

Note, next up: `Clc1cc(Cl)c2c(c1)N=C1CCCCCN1C2`
yes

Note, next up: `CC1=C(C)C(=O)C(CCCCC#CCCCC#CCO)=C(C)C1=O`
yes

Note, next up: `CC(C)=CCC[C@H](C)CCO`
yes

Note, next up: `FC(F)(Cl)C(F)(Cl)Cl`
no

Note, next up: `O=C(NC1CCN(CCc2c[nH]c3ccccc23)CC1)c1ccccc1`
yes

Note, next up: `O=[N+]([O-])c1ccc(Cl)cc1Cl`
no

Note, next up: CCOc1ccc2c(c1)C(C)CC(C)(C)N2 (stereo unspecified)
yes

Note, next up: `O=C(O)c1ccncc1`
no

Note, next up: `C=CC(=O)NC(C)(C)C`
no

Note, next up: `CCCCCCCCCCCCN1CCOCC1`
yes

Note, next up: Clc1cccc(C(c2ccc3nc[nH]c3c2)n2ccnc2)c1 (stereo unspecified)
yes

Note, next up: `Cc1nc(C)c(C)nc1C`
no

Note, next up: `c1ccc(CCNc2nc(-c3ccccc3)cs2)cc1`
yes

Note, next up: `CCCC(=O)OCCC(C)C`
no

---

target: Luciferin 4-monooxygenase (Photinus pyralis) (UniProt P08659); experiment: qHTS assay to identify small molecule inhibitors of firefly luciferase (AID 1224835); further: nearly all actives have a fitted effect of over 25% in size; conditions: purified P. pyralis luciferase, luminescence inhibition; series mostly up to 115 µM
Sequence (P08659 whole entry, looked up): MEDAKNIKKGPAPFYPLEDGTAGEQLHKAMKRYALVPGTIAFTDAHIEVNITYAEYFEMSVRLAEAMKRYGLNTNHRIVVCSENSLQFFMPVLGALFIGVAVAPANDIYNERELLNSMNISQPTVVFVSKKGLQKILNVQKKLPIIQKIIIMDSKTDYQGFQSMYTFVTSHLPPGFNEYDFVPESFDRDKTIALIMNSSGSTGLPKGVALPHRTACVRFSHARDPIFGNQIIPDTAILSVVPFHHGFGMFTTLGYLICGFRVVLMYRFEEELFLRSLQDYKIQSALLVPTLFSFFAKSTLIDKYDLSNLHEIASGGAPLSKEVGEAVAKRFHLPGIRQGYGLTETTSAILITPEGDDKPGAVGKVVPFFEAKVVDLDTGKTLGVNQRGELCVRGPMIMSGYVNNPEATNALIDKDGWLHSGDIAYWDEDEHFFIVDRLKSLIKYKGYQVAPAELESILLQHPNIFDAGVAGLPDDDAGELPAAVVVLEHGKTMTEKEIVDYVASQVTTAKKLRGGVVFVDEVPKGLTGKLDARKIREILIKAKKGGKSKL
Results filed as inconclusive are left out. Activity calls are given as the source filed them. Calls follow the shape of the dose curve; as a rule, active = well fitted inhibition curve with a large enough effect in the repeat runs; inconclusive = weak or mixed curves; inactive = flat fitted curve, though single readings scatter.
Allowed answers: Y for active, N for inactive

Please state the recorded outcome for this molecule: `Cc1cc(C)c(C)c(O)c1`
N

Note, next up: `CC(=O)c1ccc(Cl)c(Cl)c1Cl`
N

Note, next up: `O=C(OCCCCCOC(=O)c1ccccc1)c1ccccc1`
N

Note, next up: `CCCC(=O)OCCC(C)C`
N

Note, next up: `Cc1nc(C)c(C)nc1C`
N

Note, next up: `CO[C@@H]1COCC[C@@H]1N[C@@H]1CC[C@@](C(=O)N2CCc3ncc(C(F)(F)F)cc3C2)(C(C)C)C1`
N

Note, next up: `O=C(O)CCc1nc2ccccc2[nH]1`
N

Note, next up: `O=Cc1ccc(Cl)c([N+](=O)[O-])c1`
N

Note, next up: `c1ccc(CCNc2nc(-c3ccccc3)cs2)cc1`
Y

Note, next up: `CCCCCCCCCCCC(=O)OCC`
N

Note, next up: `COc1cc(C)c(Cc2cnc(N)nc2N)cc1OC`
N

Note, next up: `NC(=O)c1cc[n+](CC2=C(C(=O)[O-])N3C(=O)[C@@H](NC(=O)Cc4cccs4)[C@H]3SC2)cc1`
N

Note, next up: `CCOC(OCC)OCC`
N

Note, next up: `CCc1cnc(C(=O)O)c(C(=O)O)c1`
N

---

assay: A CellTox Green Cytotoxicity Assay to monitor cytotoxicity in HepG2 cells - 40 hour (AID 1224879); settings: CellTox Green fluorescence; series mostly up to 76.8 µM; further: nearly all actives have a fitted effect of over 40% in size
Results filed as inconclusive are left out. Active and inactive are the calls of the source. The call rests on the fitted dose curve; in most records, active means well fitted activation curve with a large enough effect in the repeat runs; inconclusive means weak or mixed curves; inactive means flat fitted curve, though single readings scatter.
Allowed answers: active, inactive

Please state the recorded outcome for this compound: `Nc1cccc2c(=O)[nH][nH]c(=O)c12`
inactive

Note, next up: FC1(F)C(F)(F)C(F)(F)C2(F)C(F)(C1(F)F)C(F)(F)C(F)(F)C1(F)C(F)(F)C(F)(F)C(F)(F)C(F)(F)C12F (centres undefined)
inactive

Note, next up: `Nc1nc(Cl)nc2c1ncn2[C@H]1C[C@H](O)[C@@H](CO)O1`
inactive

Note, next up: `Cc1ccccc1CCO`
inactive

Note, next up: `NC(=O)c1ccccc1C(N)=O`
active

Note, next up: `CC1=C(C)C(=O)C(CCCCC#CCCCC#CCO)=C(C)C1=O`
inactive

Note, next up: `CC1(C)CC(O)CC(C)(C)N1[O]`
inactive

Note, next up: `CC(=O)S[C@H](C(=O)N[C@H]1Cc2ccccc2[C@H]2CCC[C@@H](C(=O)O)N2C1=O)C(C)C`
inactive

Note, next up: `O=Cc1ccc([N+](=O)[O-])cc1`
inactive

Note, next up: `O=C(O)c1ccccc1-n1cc(C(=O)O)c(=O)c2cc(Nc3c(F)cc(F)cc3Cl)c(Cl)cc21`
inactive

Note, next up: CCCCCCCCC(=O)OCC(C)OC(=O)CCCCCCCC (centres undefined)
inactive

Note, next up: `CC(C)Oc1ccccc1O`
inactive

Note, next up: COc1ccnc2c1CCCCC2S(=O)c1nc2ccccc2[nH]1 (centres undefined)
inactive

Note, next up: `O=c1c2ccccc2oc2ccccc12`
inactive

Note, next up: `CCOc1ccccc1O`
inactive

Note, next up: `O=S(=O)(O)c1cc(Cl)c(Cl)cc1Cl`
inactive

Note, next up: `FC(F)(Cl)C(F)(Cl)Cl`
inactive

Note, next up: `CC(C)(O)C(=O)O`
inactive

Note, next up: CCCCC(CC)COCCC#N (centres undefined)
inactive

Note, next up: N#C[C@@H]1CC(F)(F)CN1C(=O)CNC1CC2CCC(C1)N2c1ncccn1 (some centres undefined)
inactive

Note, next up: `O=c1[nH]nc(-c2ccc([N+](=O)[O-])o2)o1`
inactive

Note, next up: `CC(C)CC(C)(C)C`
inactive

Note, next up: `CCCOC(C)=O`
inactive

Note, next up: CC(C)=CCCC(C)C=O (centres undefined)
inactive

---

target: Cytochrome P450 2C9 (Homo sapiens); experiment: Cytochrome P450 Family 2 Subfamily C Member 9 (CYP2C9) small molecule antagonists: luciferase reporter qHTS assay (AID 1671198); conditions: P450-Glo CYP2C9 enzyme assay, luciferin luminescence; series mostly up to 115 µM; further: nearly all actives have a fitted effect of over 50% in size
Inconclusive results are not listed. Active and inactive are the calls of the source. The call rests on the fitted dose curve; in most records, active means well fitted inhibition curve with a large enough effect in the repeat runs; inconclusive means weak or mixed curves; inactive means no such curve, though single readings can be large or run the other way.
Allowed answers: active, inactive

Please state the recorded outcome for this compound: `Cc1ccc2ccccc2c1[N+](=O)[O-]`
inactive

Note, next up: `Cc1c(-c2cccnc2)c2ccccc2n1CCCCC(=O)O`
active

Note, next up: `CCCC(=O)OCc1ccccc1`
inactive

Note, next up: CCCC1CCCC(=O)O1 (centres undefined)
active

Note, next up: CC(C)(C)NCC(O)COc1ccc(NC(=O)NC2CCCCC2)cc1 (centres undefined)
inactive

Note, next up: `O=C(OCCN1CCOCC1)c1cccnc1Nc1cccc(C(F)(F)F)c1`
active

Note, next up: `CCC(=O)O[C@@H]1C[C@H]2CC[C@]1(C)C2(C)C`
inactive

Note, next up: `Cc1c(Cl)cccc1[N+](=O)[O-]`
inactive

Note, next up: O=C1OC(=O)C2CC=CCC12 (centres undefined)
inactive

Note, next up: `CC(C)C/C=C(\C=O)c1ccccc1`
active

Note, next up: `C=CCCC`
inactive

Note, next up: Cc1ccc(Cl)c(OCC(O)CNC(C)(C)C)c1 (centres undefined)
inactive

Note, next up: CCOc1ccc2c(c1)C(C)CC(C)(C)N2 (centres undefined)
active

Note, next up: `O=C(O)c1ccc2cc(O)ccc2c1`
inactive

---

experiment: qHTS assay to identify small molecule phospholipidosis (PLD) inducers (AID 1259344); settings: HepG2 phospholipidosis, LipidTOX Red imaging, 24 h; series mostly up to 38.3 µM
Results filed as inconclusive are left out. Active and inactive are the calls of the source. Calls come from the whole dose curve; as a rule, active = well fitted activation curve with a large enough effect; inconclusive = small, poorly fitted or top-dose-only effect; inactive = flat fitted curve, though single readings scatter.
observed-property: Potency

Worked cases, answers included:
compound	observed-property	recorded-measurement
C/C(=C(\CCO)SS/C(CCO)=C(\C)N(C=O)Cc1cnc(C)nc1N)N(C=O)Cc1cnc(C)nc1N	Potency	inactive
CCOCCn1c(N2CCCN(C)CC2)nc2ccccc21	Potency	inactive
COc1ccc(CN(CCN(C)C)c2ncccn2)cc1	Potency	inactive
CC(=O)OCC(=O)[C@@]1(O)CC[C@H]2[C@@H]3CCC4=CC(=O)C=C[C@]4(C)[C@@]3(F)[C@@H](O)C[C@@]21C	Potency	inactive
CC[C@H](NC(C)C)[C@H](O)c1ccc(O)c2[nH]c(=O)ccc12	Potency	inactive
CCN(CCCCOC(=O)c1ccc(OC)c(OC)c1)C(C)Cc1ccc(OC)cc1 (stereo not drawn)	Potency	inactive

State the recorded Potency for this entry: `Cc1c(Cl)cccc1Nc1ccccc1C(=O)O`
inactive

Note, next up: CCc1ccc(C(=O)C(C)CN2CCCCC2)cc1 (stereo not drawn)
inactive
